# Tested On: RORγ-LBD (Homo sapiens)
# Protocol Description: RORγ-Ligand Binding Domain (LBD) TR-FRET Assay
# Measurement Conditions: with 2 μM ursolic acid (RORγ antagonist); highest test concentration 10 μM
# Description: HIS-tagged RORγ-LBD protein was expressed in SF9 cells using a baculovirus expression system. […] A stock of biotinylated-LXXLL peptide from coactivator SRC1 (Biotin-[…]) was prepared in assay buffer and added to each well (200 nM final concentration). […] The highest concentration of test compound analyzed was 10 μM. […]
pEC50: −log10 of the molar value.
Reported Endpoint: pEC50

Lab note: COC(=O)CCC1Cc2ccc(-c3cc(F)ccc3F)cc2N1S(=O)(=O)c1cccc(C(F)(F)F)c1 (stereo not drawn) gave pEC50 of > 6.30

Lab note: CCOC(=O)CC1CN(S(=O)(=O)c2cccc(C(F)(F)F)c2)c2cc(-c3cc(F)ccc3F)ccc21 (stereo not drawn) gave pEC50 of > 6.30

Lab note: COC(=O)CCc1cc2ccc(-c3cc(F)ccc3F)cc2n1S(=O)(=O)c1cccc(C(F)(F)F)c1 gave pEC50 of 5.30 to 6.30

###

# Tested On: Gal4-RORγ-LBD (Homo sapiens, UniProt P51449)
# Protocol Description: Gal4-RORγ Luciferase Reporter Assay in HEK-293T Cells
# Measurement Conditions: HEK-293 cells, with 2 μM ursolic acid, overnight incubation
Give measured EC50 for each item. Keep answers brief.

Lab note: O=C(O)CCC1Cc2ccc(-c3cc(F)ccc3F)cc2N1S(=O)(=O)c1cccc(C(F)(F)F)c1 (centres unmarked) [Example 6] gave EC50 of 500 to 5000 nM

Lab note: CCOC(=O)CC1CN(S(=O)(=O)c2cccc(C(F)(F)F)c2)c2cc(-c3cc(F)ccc3F)ccc21 (centres unmarked) [Example 2] gave EC50 of < 500 nM

Lab note: COC(=O)CCc1cc2ccc(-c3cc(F)ccc3F)cc2n1S(=O)(=O)c1cccc(C(F)(F)F)c1 [Example 7] gave EC50 of 500 to 5000 nM

Lab note: COC(=O)CCC1Cc2ccc(-c3cc(F)ccc3F)cc2N1S(=O)(=O)c1cccc(C(F)(F)F)c1 (centres unmarked) [Example 5] gave EC50 of < 500 nM

Lab note: O=C(O)CCc1cc2ccc(-c3cc(F)ccc3F)cc2n1S(=O)(=O)c1cccc(C(F)(F)F)c1 [Example 8] gave EC50 of 500 to 5000 nM

Lab note: O=S(=O)(c1cccc(C(F)(F)F)c1)c1c[nH]c2ccc(-c3cc(F)ccc3F)cc12 [Example 4] gave EC50 of > 10000 nM

Lab note: O=S(=O)(c1cccc(C(F)(F)F)c1)N1COc2ccc(-c3cc(F)ccc3F)cc21 [Example 1] gave EC50 of < 500 nM

Lab note: O=C(O)CC1CN(S(=O)(=O)c2cccc(C(F)(F)F)c2)c2cc(-c3cc(F)ccc3F)ccc21 (centres unmarked) [Example 3] gave EC50 of 5000 to 10000 nM

###

# Tested On: RORγ-LBD (Homo sapiens)
# Sequence (P51449 269-508 limits assumed): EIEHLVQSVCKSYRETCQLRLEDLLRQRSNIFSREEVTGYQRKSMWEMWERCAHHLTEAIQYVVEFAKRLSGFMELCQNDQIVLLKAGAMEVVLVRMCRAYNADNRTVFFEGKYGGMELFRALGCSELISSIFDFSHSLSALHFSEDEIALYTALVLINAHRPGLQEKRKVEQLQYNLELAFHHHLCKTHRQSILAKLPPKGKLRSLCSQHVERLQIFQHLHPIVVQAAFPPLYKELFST
# Protocol Description: RORγ-Ligand Binding Domain (LBD) TR-FRET Assay
# Measurement Conditions: with 2 μM ursolic acid (RORγ antagonist); highest test concentration 10 μM
pEC50: −log10 of the molar value.
Give measured pEC50 for each item. Keep answers brief.

Lab note: O=C(O)CCc1cc2ccc(-c3cc(F)ccc3F)cc2n1S(=O)(=O)c1cccc(C(F)(F)F)c1 [Example 8] gave pEC50 of 5.30 to 6.30

Lab note: O=C(O)CCC1Cc2ccc(-c3cc(F)ccc3F)cc2N1S(=O)(=O)c1cccc(C(F)(F)F)c1 (stereo not shown) [Example 6] gave pEC50 of > 6.30

Lab note: O=C(O)CC1CN(S(=O)(=O)c2cccc(C(F)(F)F)c2)c2cc(-c3cc(F)ccc3F)ccc21 (stereo not shown) [Example 3] gave pEC50 of > 6.30

Lab note: O=S(=O)(c1cccc(C(F)(F)F)c1)N1COc2ccc(-c3cc(F)ccc3F)cc21 [Example 1] gave pEC50 of > 6.30

// provenance: patent US20200207726A1
